tested on: MS2 coat protein; experiment: apparent KD of MS2 coat protein; higher = weaker reporter binding; conditions: Eterna round: R107; input ligand: tryptophan 2.4 mM
Classification field. Basis: apparent KD of MS2 coat protein. Definitions: low (below 20 nM), moderate (20 nM to below 30 nM), high (30 nM or more)

Q: Dear colleague, I would appreciate it if you could identify the bin for GACGCAUGAGUUGUAACAGCUCAUGGGUCGCGAGGACCGGUACGGCCGCCACUCGGCUGUACAUGAGGAUCACCCAUGUCAGGGU [#1 Same State - Tryptophan A Attempt #29 (HarryS)] and reply at your convenience.
Result: high

Q: Hi there! Could you help me figure out the category for AUAACAUGAGGAUCACCCAUGUAAGCAGAUACCAGCUAGGAAACUAGCCCUUGGCAGCUGCAUUCCUCAUGUAGGUAUCUGCUAA [(M1)-(M2)-(T1)-(T2)-(M)'-(T)'_Design4] please?
Result: low

Q: Lab note: which band did UGUAUGGACUGAAGGAGCGCCUCAAAAUAGCAUGAGGAACACCCAUGCAAGGCGAAAGCCGGGCAGGUAGGUCGCAGUCCAUACU [ArgBX 3] land in?
Result: moderate

Q: Which class does UAUAUAGAAGGAAGUCAUAUAGUUGCAGAAGGAGCGUAGGAAACUACAGGUAGGUCGCUGAGGUACAUGAGGAUCACCCAUGUAG [SSArg A #16 Slice of Pi] fall in?
Result: moderate

Q: Please classify: GUCCACAGCCGAAGGAGCGCUAGAAGAUGACAUGAGGAUCACCCAUGUGUGUGGUGUGGCUAGCAGGUAGGUCGCGGAGUGGAUU [Exclusion - Arginine B (Freestyle 15)]
Result: moderate

Q: Form field 'band' for CCGUUUUAUGGCGACAUAGGGCGGACUGAAGGAGCGGUAUAAUAGCCAGGUAGGUCGCAGAGAUCCACAUGAGGAUCACCCAUGU [!0.aB]
Result: high

Q: Exam item: assign GGAUAGGACACGGCCGCCACUACCUAGGAUACUAGCAACAUUUGGGUACACGAGGAUCACCCGUGUAGGACCGGGUGUCCUAUCG to the correct category.
Result: low

Q: Class? Entry: UGUAUGGACUGAAGGAGCGCCUCAAAAUAGCAUGAGGAUCACCCAUGCAAGGCGAAAGCCGGGCAGGUAGGUCGCAGUCCAUACU [ArgBX 3]
Result: low

Q: Lab note: sort GUACAUGAGGAUCACCCAUGUAUAGUUGAAGGAGCGACCGGUGGGUCAGGUAGGUCGCAGCACAUGGCGUCAACCCGUGUAUGCC [#1 Exclusion - Arginine A Attempt #26 (Inspired by Pi)] into the matching apparent KD of MS2 coat protein band.
Result: low

Q: Could you place AUCUCAUAGAGUGAUACCAGACUACAUGAGGAUCACCCAUGUUACAUUUAAAUAUCAUUUGUCCCUUGGCAGCACAUGAAGUACA [JR_Nu_ExcTheophyB_Sub018] in its proper category? Many thanks.
Result: moderate

Q: Band of AGCCACUCGAGUGAUCCUCACGAGUGGCUACGAGGACCGGUACGGCCGCCACUCGAAUCAACAUGAGGAUCACCCAUGUAAUAAU [Brourdmod02] ?
Result: high

Q: Which band does UGUAUGUGAUUUGAUACCAGUCCAACUGGUAAAACAUGAGGAUCACCCAUGUAAAAUUGGGACCCUUGGCAGCAAAUCGCAUACU [SSTheo B #21] fall in?
Result: high

###

system: MS2 coat protein; assay: apparent KD of MS2 coat protein; designed switch direction (-1 OFF switch, 1 ON switch): 1; higher = weaker reporter binding; details: Eterna round: R95; input ligand: microRNA oligo, concentration not stated
Is apparent KD of MS2 coat protein at least 40 nM? Then Criterion met. If not, Criterion not met.

Q: # bool: apparent KD of MS2 coat protein of GCUUCACAUGAGGAUCACCCAUGUUUUCGGAGUCGAGGAUAUGGUCACUGUAAACAGUGGCCAGAAGGCGAGGAGC [SS1 - Son of Teenbexe v8] (puzzle: Same State 1) >= 40 nM
Result: Criterion not met

Q: Tell me whether apparent KD of MS2 coat protein is at least 40 nM here: UCAACUUUUUUUAGUGUGUUGCCAGGUUAACAUGAGGAUCACCCAUGUAAAGUAUAGUGGGAUUAAGUUCGUCUUAA [JR_SHM208A_Sub072] (puzzle: Sensor for hsa-mir-208a)
Result: Criterion met

Q: Check the entry UACAAUCUAUCUGAGGAUAUCAUGAAUUAAACAUGAGGAUCACCCAUGUGCAGGAAAACUGCAUAUGAGAAGGCAGAUAGAUUGU [salish99_ss2_r3_060] (puzzle: Same State 2) : does apparent KD of MS2 coat protein equal or exceed 40 nM?
Result: Criterion not met

Q: I'd appreciate it if you could say whether CGUUCAUACUCAGGACGGAGAGUAGAGGAACAUGAGGAUCACCCAUGUAUGAGCUUUUUGCUCGUCAUUAACAGUAG [JR_SHM208a_Sub012] (puzzle: Sensor for hsa-mir-208a) has apparent KD of MS2 coat protein at least equal to 40 nM.
Result: Criterion met

Q: Hello, I need to know if AGAGCCGGCACUGAGGAUAUUCAUAAUAAAACAUGAGGAUCACCCAUGUAGGCCAGAAGGCCUUGGGAGAAGGCAGGUCGGCUCU [Mat - Same State 2 - Mod of UCT - D69] (puzzle: Same State 2) has measured apparent KD of MS2 coat protein not below 40 nM. Thanks!
Result: Criterion met

Q: Tell me whether apparent KD of MS2 coat protein is at least 40 nM here: UGAGCCGGCACUGAGGAUAUUCAUAAUAAAACAUGAGGAUCACCCAUGUAGGCCAGAAGGCCUUGGGAGAAGGCAGGUCGGCUCU [Mat - Same State 2 - Mod of UCT - D70] (puzzle: Same State 2)
Result: Criterion met

Q: Please indicate if the recorded apparent KD of MS2 coat protein for UCUUGGUUUUUGCUCGUUUUUUGUGUUGAACAUGAGGAUCACCCAUGUAUUGUACGGUCCGGUUUAGUGAUGAUCCG [JMF 73] (puzzle: Sensor for hsa-mir-208a) meets or exceeds 40 nM.
Result: Criterion not met

Q: Please indicate if the recorded apparent KD of MS2 coat protein for UCUUGGUUUUUGCUCGUUUUUUGUGUUGAACAUGAGGAUCACCCAUGUAUUGUACGGUCCGGUUUGGUAAUGGUCCA [JMF 9] (puzzle: Sensor for hsa-mir-208a) meets or exceeds 40 nM.
Result: Criterion met

Q: Evaluate UCUUGGUUUUUGCUCGUUUUUUGUGUUGAACAUGAGGAUCACCCAUGUAUUGUACGAUCCAAUUUAAUAAUGGUCCG [JMF 60] (puzzle: Sensor for hsa-mir-208a) : apparent KD of MS2 coat protein at minimum 40 nM?
Result: Criterion not met

Q: Confirm if apparent KD of MS2 coat protein reported for the sequence CAGCGCUGUCGAGAGGAUAUGCGGUGAUGGACAUGAGGAUCACCCAUGUUAGCGAUAGCAUUACUGUAGAAGGCUCUACAGCUGC [JL-ss2-3.08 ViennaUCT mod] (puzzle: Same State 2) is 40 nM or above.
Result: Criterion not met

###

system: MS2 coat protein; experiment: apparent KD of MS2 coat protein; higher = weaker reporter binding; settings: Eterna round: R107; input ligand: arginine 13.2 mM
Label met when apparent KD of MS2 coat protein is at or above 0.05 µM; otherwise label not met.

Q: Is apparent KD of MS2 coat protein for AAAAUCCUACCUGAGGAUCACCCUGGUGAAGGAGCGCCCGAAAGGGCAGGUAGGUCGCACCUGAGGAUCACCCUGGUACCUAAAA [ArgAX 29 #DoubleMs2 #OpenEnded #AlternativeMS2] at or above 0.05 µM?
Result: met

Q: Could you verify whether the entry GGGCGUGUGGUGCGGCGUGUUCCGCUCCGUCGAGGACCGGUACGGCCGCCACUCGACAUGAGGAUCACCCAUGUGCGAGCGCGCG [#1 Exclusion - Tryptophan A Attempt #8 (HarryS)] shows apparent KD of MS2 coat protein of no less than 0.05 µM?
Result: not met

Q: // inclusive: apparent KD of MS2 coat protein at least 0.05 µM? input: GGCGUGGUCGGAAGGAGCGACAUGAGGAUCACCCAUGUCUCCCGUUAUGGGAGUUCCUUAGGUCAGGUAGGUCGCCGACUGCGGC [#1 Exclusion - Arginine B Attempt #22 (Inspired by Omei)]
Result: not met

Q: In plain terms: is recorded apparent KD of MS2 coat protein at least 0.05 µM for AGUGUUAUAACUGAUACCAGACUCUCAUGUUUACAUGAGGAUCACCCAUGUUAUUUCUUUGUCCCUUGGCAGCAGAAUUUACACA [JR_SSTheophyB_Sub009] ?
Result: met

Q: Entry GGACUAACCAGAAGGAGCGGCACGCAGAAACUGCAAAUUCCUCCGCACGAGGAUCACCCGUGUCAGGUAGGUCGCUGGUUAGUCG [ArgBX 28] : is its apparent KD of MS2 coat protein no less than 0.05 µM?
Result: not met

Q: Could you please find out whether UUCUGGACCCGUGAUACCAGAGACAUGAGGAUCACCCAUGUACAUGAGGAUCACCCAUGUCUCCCUUGGCAGCACUGCAGGGAGC [Exclusion Theophylline B GF 14] has apparent KD of MS2 coat protein that meets 0.05 µM or exceeds it?
Result: not met

Q: Answer whether apparent KD of MS2 coat protein of ACAAGUCCUCAUGAUACCAGCGAUGAGACAUAGUCUCAACAUGAGGAUCACCCAUGUAUUCGCCCUUGGCAGCAUACGGUUUUUG [Arleer] is greater than or equal to 0.05 µM.
Result: met

Q: Answer whether apparent KD of MS2 coat protein of GGAUAGGACACGGCCGCCACUGCCUAGGAUACUAGCAACAUUUGGGUACAUGAGGAUCACCCAUGUAGGACCGGGUGUCCUAUCG is greater than or equal to 0.05 µM.
Result: not met

Q: Reported apparent KD of MS2 coat protein at or above 0.05 µM? CAGGCUAGGACGGCCGCCACUGUGGCUACGGUACAUGAGGAUCACCCAUGUUUGUGGUUGAUCUACAGGACCGGGUCCUGACACG [Letisoonri]
Result: not met

Q: Would you say AGUCUUGAACGAAGGAGCGACGUACAUGAGGAUCACCCAUGUGGGAGCGAAAGCUCCUAACGUCAGGUAGGUCGCGUUCGAGACA [Omei Arginine B SS A v1] shows apparent KD of MS2 coat protein at minimum 0.05 µM?
Result: not met

Q: Could you verify whether the entry AACAUGAGGAUCACCCAUGUGUCCUCGAAACGAGGACCGGUACGGCCGCCACUCGAAUAAGGUGUUGACGAAAAGUCAGCACCAA [Mat - Exclusion - Trytophan A - D17] shows apparent KD of MS2 coat protein of no less than 0.05 µM?
Result: met

Q: Exam item: decide whether the reported apparent KD of MS2 coat protein for UCGUGUAUUUCGGAUACCAGUGAAAUCGAUACAUGAGGAUCACCCAUGUGAGAGGAUGUACACCCUUGGCAGCUGUAUAUAUCUG [fgfmullin] is at least 0.05 µM.
Result: not met

Q: Does apparent KD of MS2 coat protein meet or surpass 0.05 µM for UGGUGUAGGGUAAAUAGGAUUAGUACAGAAGGAGCGCGAAUAAACGCAGGUAGGUCGCUGGAAUAAACAUGAGGAUCACCCAUGU [Same State Arginine A GF 27] ?
Result: not met

Q: Textbook exercise: given the entry UGUAUGUGAUCUGAUACCAGCUAGCGGAAACGCAAAAGCUUGAGGAUCACCCAAGUGGAAAGCCCUUGGCAGCAGAUCGCAUACU [Denovo 1 #StaticStem #AlternativeMS2] , state whether its apparent KD of MS2 coat protein is greater than or equal to 0.05 µM.
Result: not met

Q: Answer whether apparent KD of MS2 coat protein of AUAACAUGAGGAUCACCCAUGUAAGCAGAUACCAGCUAGGAAACUAGCCCUUGGCAGCUGCAAGGUGAUCCUAAUGCAGCUGCAA [(M1)-(M2)-(T1)-(T2)-(M)'-(T)'_Design3] is greater than or equal to 0.05 µM.
Result: met

Q: Decide: apparent KD of MS2 coat protein of AAUAGACAUGAGGAUCACCCAUGUAUGGAAGGAGCGGUGAAUAAGCCAGGUAGGUCGCCAGUGUGAGGGUUAUCUAUGUAAUAAA [#19 Exclusion - Arginine A] >= 0.05 µM?
Result: not met

Q: Hi, just wondering whether GGGAGGGAGGCGGCCGCCACUGAUUUUCAUAUAUAUAUAACAUGAGGAUCACCCAUGUAGAUAUACAGGACCGGGCCUUUUUUUU [aaaG] shows apparent KD of MS2 coat protein of 0.05 µM or higher.
Result: not met

Q: Confirm if apparent KD of MS2 coat protein reported for the sequence AAGACGGUCGGAAGGAGCGGUACAUGAGGAUCACCCAUGUACUCCUGGGCAUCCGUAGUGUGCCAGGUAGGUCGCCGAUUGCGGG [XArg-B14] is 0.05 µM or above.
Result: not met

Q: Determine whether this sequence has apparent KD of MS2 coat protein no lower than 0.05 µM: AUUGUGAAGUCGGCCGCCACUGCAUAGUUUAACCACAUGUAACAUGAGGAUCACCCAUGUAAUGACAGGACCGGGACAAUAGUAA [JR_SSTryptoB_Sub023]
Result: not met

Q: Form field: apparent KD of MS2 coat protein at least 0.05 µM? Entry: UGCCUAGACGUGGAUUACCCGUGUACCGAAGGAGCGCCCGAAAGGGCAGGUAGGUCGCGGAGGACAUGAGGAUCACCCAUGUUUG
Result: not met

Q: hey, is apparent KD of MS2 coat protein for this one >= 0.05 µM? AUACAUGAGGAUCACCCAUGUCAUACAGAAGGAGCGUCACAUAAGACAGGUAGGUCGCUGAUAUAUACGUCACGAAUAGUGACGA [JR_SSArginiA_Sub017]
Result: not met

Q: Quick check: does AGCACUGUGACGGCCGCCACUAUAUUAGGGUGGUAGGGUUCAUAAAUACAUGAGGAUCACCCAUGUAGGACCGGGUCUCAGUGCA [Omei Trp Exc B A v1] have apparent KD of MS2 coat protein greater than or equal to 0.05 µM?
Result: not met
